Test system: SMN2-linked luciferase-reporter gene construct
protocol-text: SMN splice reporter assay (SMN2-linked luciferase reporter, Example 10)
Format: cell-based
measurement-conditions: SMN2-linked luciferase reporter; average maximum fold increase; read-out: SMN Splice Reporter Assay (Example 10) Avg MaxFold Increase
The following molecules are listed with their measured maximal fold induction values.
observation-type: maximal fold induction

>>> print(df.to_string())
                                   molecule  measured_value
0  CC(C)c1ccc(N2Cc3ccc(NC(=O)Nc4ccccc4)cc3C2=O)cc1 [ALB-118416]            1.17
1  CC(C)c1ccc(N2Cc3ccc(NS(C)(=O)=O)cc3C2=O)cc1 [ALB-116486]            1.49
2  CC(C(=O)O)c1ccc(N2Cc3cc(NS(C)(=O)=O)ccc3C2=O)cc1 (stereo not drawn) [ALB-113647]            1.11
3  CCCNC(=O)Nc1ccc2c(c1)C(=O)N(c1ccc(C(C)C)cc1)C2 [ALB-118415]             1.4
4  CCCN(C)C(=O)Nc1ccc2c(c1)C(=O)N(c1ccc(C(C)C)cc1)C2 [ALB-118898]            1.06
5  CC(C)c1ccc(N2Cc3ccc(NC(=O)N(C)C(C)C)cc3C2=O)cc1 [ALB-118899]            1.08
6  CCc1ccc(N2Cc3cc4c(cc3C2=O)OCCO4)cc1 [ALB-116240]            1.62
7  CC(=O)N(C)c1ccc2c(c1)C(=O)N(c1ccc(C(C)C)cc1)C2 [ALB-117047]            1.39
8  CC(=O)Nc1ccc2c(c1)C(=O)N(c1ccc(C(C)C)cc1)C2 [ALB-118157]            1.51

---

Test system: SMN2-linked luciferase-reporter gene construct
protocol-text: SMN splice reporter assay (SMN2-linked luciferase reporter, Example 10)
Assay type: cell-based
measurement-conditions: SMN2-linked luciferase reporter, average
pEC50: −log10 of the molar value.
Form field: pEC50 (one value per entry).
observation-type: pEC50

>>> df
                                   compound  observation_type  measured_value
0  CC(C(=O)O)c1ccc(N2CC3=C(CC=CC3)C2=O)cc1 (stereo not drawn) [ALB-112896]             pEC50            6.00
1  CC(C(=O)O)c1ccc(N2Cc3ccc(C4CC4)cc3C2=O)cc1 (stereo not drawn) [ALB-115716]             pEC50            7.54
2  COc1cccc2c1CN(c1ccc(C(C)C(=O)OC(C)(C)C)cc1)C2=O (stereo not drawn) [ALB-111894]             pEC50            5.50
3  COc1ccc(C(=O)Nc2ccc3c(c2)C(=O)N(c2ccc(C(C)C(=O)O)cc2)C3)cc1 (stereo not drawn) [ALB-111984]             pEC50            5.02
4  CC(C)c1ccc(N2Cc3ccc(-c4ccccc4)cc3C2=O)cc1 [ALB-118037]             pEC50            6.03
5  CC(C(=O)O)c1ccc(N2Cc3ccc(/C=C/C(F)(F)F)cc3C2=O)cc1 (stereo not drawn) [ALB-115501]             pEC50            5.63
6  CC(=O)c1ccc(N2Cc3ccccc3C2=O)cc1 [ALB-112360]             pEC50            6.37
7  CNc1ccc2c(c1)C(=O)N(c1ccc(C(C)C)cc1)C2 [ALB-117046]             pEC50            7.05
8  CCc1ccc2c(c1)C(=O)N(c1ccc(C(C)C(=O)O)cc1)C2 (stereo not drawn) [ALB-113212]             pEC50            6.99
